Values were extracted from patent EP3403653A1.

Target: NHE1 (Homo sapiens)
Sequence (P19634 whole entry, species assumed): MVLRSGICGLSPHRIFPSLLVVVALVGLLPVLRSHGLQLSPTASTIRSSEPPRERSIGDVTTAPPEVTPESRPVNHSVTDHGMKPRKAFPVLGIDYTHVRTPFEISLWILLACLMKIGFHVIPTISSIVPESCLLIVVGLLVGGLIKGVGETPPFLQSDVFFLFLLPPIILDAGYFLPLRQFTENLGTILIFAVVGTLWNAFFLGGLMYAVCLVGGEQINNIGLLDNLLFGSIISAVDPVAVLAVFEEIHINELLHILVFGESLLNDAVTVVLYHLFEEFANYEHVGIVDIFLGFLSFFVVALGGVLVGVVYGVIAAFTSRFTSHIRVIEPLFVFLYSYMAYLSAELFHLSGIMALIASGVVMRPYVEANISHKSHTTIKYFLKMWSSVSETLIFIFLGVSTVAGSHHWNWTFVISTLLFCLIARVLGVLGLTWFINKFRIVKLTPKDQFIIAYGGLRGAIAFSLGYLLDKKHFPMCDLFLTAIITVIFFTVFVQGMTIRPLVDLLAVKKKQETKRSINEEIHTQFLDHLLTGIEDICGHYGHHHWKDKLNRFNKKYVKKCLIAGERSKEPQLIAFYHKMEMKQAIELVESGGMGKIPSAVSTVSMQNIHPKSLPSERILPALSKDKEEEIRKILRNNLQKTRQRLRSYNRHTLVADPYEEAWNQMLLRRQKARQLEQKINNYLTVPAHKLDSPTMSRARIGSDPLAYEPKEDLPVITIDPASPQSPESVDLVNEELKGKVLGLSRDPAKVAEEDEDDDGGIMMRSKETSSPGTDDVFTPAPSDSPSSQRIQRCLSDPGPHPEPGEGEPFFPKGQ
Assay: Lithium uptake measurement, NHE1 control
Details: calculated from dose-response curves of lithium uptake
Description: The uptake of lithium was then started by adding the same medium containing 3 to 10 mM LiCl and the various inhibitor concentrations. […] At the end of the uptake time the cells were rinsed rapidly (4 rinses in less than 10 seconds) in PBS at 4° C. 250µl of 25% nitric acid were added per well. The cell contents were then transferred into eppendorf tubes. The tubes were centrifuged for 5 min at 13000 rpm at room temperature. […]
parameter: pKi
Bear in mind: pKi is minus log10 of a mol/L concentration; give just that figure.

Enquiry: GET /values?readout=pKi&item= Cc1cc(-n2cccc2)c(S(C)(=O)=O)cc1C(=O)NC(=N)N [Eniporide, eniporide]
Return: 7.40

Enquiry: Try N=C(N)NC(=O)c1cnn(-c2cccc3ncccc23)c1C1CC1 [Zoniporide, zoniporide] next.
Return: 7.70

Enquiry: Item: CN(C)c1nc(N)c(C(=O)NC(=N)N)nc1Cl [DMA, dimethyl-amiloride]
Return: 7.00

Enquiry: Check N=C(N)NC(=O)c1nc(Cl)c(N2CCCCCC2)nc1N [HMA, hexamethyl-amiloride] too.
Return: 7.70

Enquiry: Now the molecule CC(C)c1ccc(C(=O)NC(=N)N)cc1S(C)(=O)=O [Cariporide, cariporide]
Return: 7.40

Enquiry: Check CCN(c1nc(N)c(C(=O)NC(=N)N)nc1Cl)C(C)C [EIPA, 5N-(ethylisopropyl) amiloride] too.
Return: 7.00

----------
Target: NHE7 (Homo sapiens, UniProt Q96T83)
Sequence (Q96T83 1-725): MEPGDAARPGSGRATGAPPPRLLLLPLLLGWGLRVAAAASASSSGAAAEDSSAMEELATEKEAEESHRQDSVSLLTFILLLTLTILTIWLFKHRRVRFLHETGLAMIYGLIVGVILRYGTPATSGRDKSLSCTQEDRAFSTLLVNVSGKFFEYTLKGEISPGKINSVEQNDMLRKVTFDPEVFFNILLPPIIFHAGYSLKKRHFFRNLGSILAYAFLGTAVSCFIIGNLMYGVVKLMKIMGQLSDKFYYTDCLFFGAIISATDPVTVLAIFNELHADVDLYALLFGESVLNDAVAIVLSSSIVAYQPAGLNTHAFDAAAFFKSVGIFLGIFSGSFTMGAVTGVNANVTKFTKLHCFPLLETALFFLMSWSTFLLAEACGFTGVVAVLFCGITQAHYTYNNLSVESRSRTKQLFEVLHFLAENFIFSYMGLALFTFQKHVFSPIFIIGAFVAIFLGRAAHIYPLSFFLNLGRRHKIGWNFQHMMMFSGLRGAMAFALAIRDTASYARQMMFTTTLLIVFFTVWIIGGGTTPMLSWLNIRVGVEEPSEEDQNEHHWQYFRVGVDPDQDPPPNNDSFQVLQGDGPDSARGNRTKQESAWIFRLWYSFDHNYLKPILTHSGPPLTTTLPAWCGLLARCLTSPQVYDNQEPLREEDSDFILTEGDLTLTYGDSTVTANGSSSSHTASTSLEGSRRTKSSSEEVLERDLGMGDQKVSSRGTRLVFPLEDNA
Assay: Lithium uptake in PM-NHE7 cells (atomic absorption spectroscopy), dose-response of inhibitors
Settings: calculated from dose-response curves of lithium uptake, 3 to 10 mM LiCl, initial velocity conditions
Source text: […]
parameter: Ki

Enquiry: // returns reported Ki for input N=C(N)NC(=O)c1cnn(-c2cccc3ncccc23)c1C1CC1 [Zoniporide, zoniporide]
Return: 0.003 µM

Enquiry: Subsequent entry: N=C(N)NC(=O)c1nc(Cl)c(N2CCCCCC2)nc1N [HMA, hexamethyl-amiloride]
Return: 0.08 µM

***
Enquiry: # input compound: CCN(c1nc(N)c(C(=O)NC(=N)N)nc1Cl)C(C)C [EIPA, 5N-(ethylisopropyl) amiloride] ; wanted: its Ki
Return: 0.04 µM

Enquiry: Item: Cc1cc(-n2cccc2)c(S(C)(=O)=O)cc1C(=O)NC(=N)N [Eniporide, eniporide]
Return: 0.0025 µM

Enquiry: Would you kindly repeat that for N=C(N)NC(=O)c1nc(Cl)c(N)nc1N [Amiloride, amiloride] ?
Return: 1.64 µM

Enquiry: What do you get for CN(C)c1nc(N)c(C(=O)NC(=N)N)nc1Cl [DMA, dimethyl-amiloride] ?
Return: 0.17 µM

Enquiry: What about CC(C)c1ccc(C(=O)NC(=N)N)cc1S(C)(=O)=O [Cariporide, cariporide] ?
Return: 0.02 µM
